Values were extracted from the RNAGym collection of RNA variant scans (doi:10.1126/science.aae0568).

Recorded yeast fitness, one value per entry.
B1: tRNA (parent)
chain: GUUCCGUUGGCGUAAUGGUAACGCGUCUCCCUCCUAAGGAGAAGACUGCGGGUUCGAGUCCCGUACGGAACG

Variants of: B1
experiment-summary: yeast fitness relative to wild type (ratio to wild type); higher = fitter; tRNA-Arg(CCU), competitive growth, 37 C, YPD
Variants at the floor of the assay were thinned out.
reported-metric: yeast fitness

U16A C24U :: 1.06
U3A C5A :: 0.806
C5U G44A :: 1.08
C22U C31G G51A :: 0.563
U35A C46G C49U :: 0.527
C22G C30A C61U :: 0.545
C24U A40G :: 0.72
C46G G51C :: 0.591
U7A U59C :: 0.662
A21G G67C :: 0.865
C11G A20G G44C U54C C62A :: 0.87
A20C G52A :: 0.705
C11G C62A A70C :: 0.563
A20G A43G :: 1.07
U2A A43C C61U :: 0.572
U16A C31A A69U :: 0.62
U19C C30A U47C :: 0.693
U35A A43G :: 0.624
U8C U16C A69C :: 0.709
C30U G50C :: 0.69
G18C A45C A65C :: 0.598
C60A U64C :: 0.718
C5A U32G :: 0.584
U16C C30U C34G :: 0.579
C5A C29U A69U :: 0.632
C34A U53A :: 0.541
G67A A70U :: 0.938
